experimental_target: gastrin receptors (Rattus norvegicus, UniProt P30553)
Construct: from tissue; host or cells: isolated perfused whole stomach of immature rats (33-50 g, ca. 21 days old)
Sequence (P30553 whole entry, the tested form may be a part): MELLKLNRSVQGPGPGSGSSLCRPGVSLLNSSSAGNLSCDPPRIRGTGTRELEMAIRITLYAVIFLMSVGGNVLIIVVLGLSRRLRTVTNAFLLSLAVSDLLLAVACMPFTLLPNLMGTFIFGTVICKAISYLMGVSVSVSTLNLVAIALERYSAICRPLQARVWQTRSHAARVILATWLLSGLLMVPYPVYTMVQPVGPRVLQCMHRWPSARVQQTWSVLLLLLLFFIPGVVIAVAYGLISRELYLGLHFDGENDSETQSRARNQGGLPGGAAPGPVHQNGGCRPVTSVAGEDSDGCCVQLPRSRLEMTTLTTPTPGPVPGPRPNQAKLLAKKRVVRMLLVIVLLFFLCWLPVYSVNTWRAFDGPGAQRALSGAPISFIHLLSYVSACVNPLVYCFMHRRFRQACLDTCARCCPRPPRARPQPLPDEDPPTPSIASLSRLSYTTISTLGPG
protocol_text: gastrin antagonist activity in an immature rat stomach assay (pentagastrin-stimulated acid secretion)
cond: isolated immature rat stomach, cumulative pentagastrin dose-response curves, 60 min
Recorded Gastrin pKB values for a group of compounds are listed next.
readout_type: Gastrin pKB

[
  {
    "compound": "O=C(NCC12CC3CC(CC(C3)C1)C2)C1C2C=CC(c3ccccc32)C1C(=O)N1CCC[C@H]1C(=O)O (stereo partly shown)",
    "experimental_value": 6.5
  },
  {
    "compound": "COC(=O)C12CC(c3ccccc31)C(C(=O)NCC13CC4CC(CC(C4)C1)C3)C2C(=O)N[C@@H](Cc1ccccc1)C(=O)Nc1cc(C(=O)O)cc(C(=O)O)c1 (mixture of isomers)",
    "experimental_value": 6.9
  },
  {
    "compound": "COC(=O)C12CC(c3ccccc31)C(C(=O)NCC13CC4CC(CC(C4)C1)C3)C2C(=O)O (mixture of isomers)",
    "experimental_value": 6.1
  },
  {
    "compound": "COC(=O)C12CC(c3ccccc31)C(C(=O)NCC13CC4CC(CC(C4)C1)C3)C2C(=O)N1CCC[C@@H]1C(=O)O (mixture of isomers)",
    "experimental_value": 5.6
  }
]

###

Recorded Ki values for a group of compounds are listed next.
experimental_target: CCKB receptor (Mus musculus)
Construct: The cortex was dissected, weighed and homogenised in 40 ml ice-cold buffer; from tissue; host or cells: cerebral cortex membranes of male CD1 mice (Charles River)
Sequence (P56481 whole entry): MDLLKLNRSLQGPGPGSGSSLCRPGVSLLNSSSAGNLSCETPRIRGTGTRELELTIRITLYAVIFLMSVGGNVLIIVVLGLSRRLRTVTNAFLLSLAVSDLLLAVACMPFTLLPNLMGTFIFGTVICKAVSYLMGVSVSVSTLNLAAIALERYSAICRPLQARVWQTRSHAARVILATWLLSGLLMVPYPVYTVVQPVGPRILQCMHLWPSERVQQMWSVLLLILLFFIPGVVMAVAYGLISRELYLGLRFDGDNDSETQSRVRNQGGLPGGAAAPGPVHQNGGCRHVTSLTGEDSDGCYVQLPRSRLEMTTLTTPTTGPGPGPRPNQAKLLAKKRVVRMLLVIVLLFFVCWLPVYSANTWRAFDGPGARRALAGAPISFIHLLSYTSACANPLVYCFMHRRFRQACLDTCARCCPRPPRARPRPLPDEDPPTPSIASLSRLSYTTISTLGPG
protocol_text: radioligand binding assay at the CCKB receptor in mouse cortical membranes ([125I]-CCK8S)
cond: 150 min at 21±3°, read-out: CCKB pKi (converted)
Procedure: The compounds of the examples were tested for binding at the CCKB receptor in mouse cortical membranes by means of a radioligand binding assay. The procedure was as follows: The whole brains from male mice (CD1 22-25 g; Charles River) were removed and placed in ice-cold buffer (pH7.2 @ 21±3 °) of the following composition (mM); 10 HEPES, 130 NaCl, 4.7 KCl, 5 MgCl2, 1 EDTA and containing 0.25 g.1^-1 bacitracin. […]
readout_type: Ki (µM)

[
  {
    "compound": "O=C(NCC12CC3CC(CC(C3)C1)C2)C1C2C=CC(c3ccccc32)C1C(=O)N1CCC[C@@H]1C(=O)O (stereo partly shown) [Example 10]",
    "units_text": "µM",
    "experimental_value": 2
  },
  {
    "compound": "C[C@@H](NC(=O)[C@H]1CCCN1C(=O)C1C2CCC(c3ccccc32)C1C(=O)NCC12CC3CC(CC(C3)C1)C2)C(=O)O (stereo partly shown) [Example 41]",
    "units_text": "µM",
    "experimental_value": 5.01
  },
  {
    "compound": "CCCCCCCCNC(=O)[C@H]1[C@@H](C(=O)O)[C@@H]2C=C[C@H]1c1ccccc12 (relative stereo)",
    "units_text": "µM",
    "experimental_value": 25.1
  },
  {
    "compound": "O=C(O)[C@@H]1[C@H](C(=O)NCC23CC4CC(CC(C4)C2)C3)[C@H]2C=C[C@@H]1c1ccccc12 (relative stereo)",
    "units_text": "µM",
    "experimental_value": 2.51
  },
  {
    "compound": "COC(=O)[C@H](C)NC(=O)C1C2CCC(c3ccccc32)C1C(=O)NCC12CC3CC(CC(C3)C1)C2 (stereo partly shown) [Example 22]",
    "units_text": "µM",
    "experimental_value": 0.631
  },
  {
    "compound": "O=C1CC2c3ccccc3C1C(C(=O)N1CCC[C@@H]1C(=O)O)C2C(=O)NCC12CC3CC(CC(C3)C1)C2 (single isomer, unassigned)",
    "units_text": "µM",
    "experimental_value": 6.31
  },
  {
    "compound": "CCCCCCCCNC(=O)[C@@H]1[C@H](C(=O)O)[C@@H]2C=C[C@H]1c1ccccc12 (relative stereo)",
    "units_text": "µM",
    "experimental_value": 12.6
  }
]
